// provenance: paper PMC10397247

target_or_system: T1, 4H2576-bN
T1 chain: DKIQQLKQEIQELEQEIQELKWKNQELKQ
assay_details: two-hybrid library CCNG1;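 note: natural log of median RNA to DNA barcode read ratio; higher means stronger binding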
Returns one of MET or NOT MET; MET when interaction score is >= 1.

> print(dat)
                                     binder  assigned.category
1  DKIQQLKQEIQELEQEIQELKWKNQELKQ [4H2576-bN]                MET
2  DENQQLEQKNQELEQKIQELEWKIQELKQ [4H1446-bN]                MET
3  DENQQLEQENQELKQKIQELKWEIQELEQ [4H1257-bN]            NOT MET
4  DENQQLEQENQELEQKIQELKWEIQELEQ [4H1193-bN]            NOT MET
5  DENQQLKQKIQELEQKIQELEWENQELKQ [4H1828-bN]                MET
